tested.system: JAK1 (recombinant purified GST-tagged catalytic domain) (Homo sapiens (Human), UniProt P23458);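 further: biochemical assay with HTRF read-out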
Sequence (P23458 875-1153): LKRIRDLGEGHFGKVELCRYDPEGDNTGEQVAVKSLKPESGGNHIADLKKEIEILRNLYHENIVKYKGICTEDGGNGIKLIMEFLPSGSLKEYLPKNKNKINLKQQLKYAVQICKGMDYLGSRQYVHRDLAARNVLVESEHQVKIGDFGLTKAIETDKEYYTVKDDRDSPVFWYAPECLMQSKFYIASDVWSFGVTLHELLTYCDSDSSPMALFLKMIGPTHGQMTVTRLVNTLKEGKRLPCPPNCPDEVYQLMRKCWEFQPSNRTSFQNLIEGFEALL
protocol: biochemical
Friendly reminder: IC50 below 2 nM is class 1, at or above is class 0.

Query: In the record for CC(C)(O)C1CC(CN[C@H]2CC[C@@H](n3cc(C(N)=O)c(Nc4ccc(C(F)(F)F)cc4)n3)[C@H](C#N)C2)C1 (single isomer, unassigned) [Example 30-4] , is IC50 less than 2 nM?
Result: class 1

Query: Below 2 nM on IC50? Entry N#C[C@H]1C[C@H](NC2COC2)CC[C@@H]1n1cc(C(N)=O)c(Nc2ccc(CC(F)(F)F)cc2)n1 (single isomer, unassigned) [Example 28-77]
Result: class 1

Query: Criterion: IC50 strictly below 2 nM. Is it met by C[C@]1(O)CC[C@H](n2cc(C(N)=O)c(Nc3ccc(Cl)cc3)n2)[C@@H](C#N)C1 (single isomer, unassigned) [Example 32-10] ?
Result: class 1

Query: Could you please tell me whether IC50 recorded for N#C[C@H]1C[C@@H](CF)CC[C@@H]1n1cc(C(N)=O)c(Nc2ccnc(F)c2)n1 (racemic) [Example 37] is less than 2 nM?
Result: class 1

Query: Just wondering, is IC50 of N#C[C@H]1CC(NC2CCS(=O)(=O)C2)CC[C@@H]1n1cc(C(N)=O)c(Nc2ccc(S(=O)(=O)C(F)(F)F)cc2)n1 (single isomer, unassigned) [Example 28-153] below 2 nM?
Result: class 1

Query: Criterion: IC50 strictly below 2 nM. Is it met by N#C[C@H]1C[C@H](N2CC(O)C2)CC[C@@H]1n1cc(C(N)=O)c(Nc2ccc(S(=O)(=O)C(F)(F)F)cc2)n1 (single isomer, unassigned) [Example 28-150] ?
Result: class 1

Query: Hello, I'm reviewing records and need to know if IC50 of N#C[C@H]1C[C@@H](N[C@@H](C2CC2)C(F)(F)F)CC[C@@H]1n1cc(C(N)=O)c(Nc2ccc(C(F)(F)F)cc2)n1 (single isomer, unassigned) [Example 28-194] is below 2 nM. Could you check?
Result: class 0

Query: Lab log: compare recorded IC50 with 2 nM; is it strictly lower for N#C[C@H]1C[C@@H](NCC(F)(F)F)CC[C@@H]1n1cc(C(N)=O)c(Nc2ccnc(F)c2)n1 (single isomer, unassigned) [Example 28-111] ?
Result: class 1

Query: Dear colleague, could you confirm whether IC50 of N#C[C@H]1CCCC[C@@H]1n1cc(C(N)=O)c(Nc2ccc(C3CC3)nc2)n1 (single isomer, unassigned) [Example 17-80] falls below 2 nM? Thanks.
Result: class 0

Query: Hello, is IC50 of the following molecule strictly smaller than 2 nM? COCC(C)(C)N[C@H]1CCC(n2cc(C(N)=O)c(Nc3ccc(Cl)cc3)n2)[C@@H](C#N)C1 (single isomer, unassigned) [Example 28-222]
Result: class 1

Query: # TODO verify IC50 < 2 nM strictly for this molecule: N#C[C@H]1CCCC(F)[C@@H]1n1cc(C(N)=O)c(Nc2ccccc2)n1 (mixture of isomers) [Example 23-1]
Result: class 0

Query: Please let me know if N#C[C@H]1CCCC[C@@H]1n1cc(C(N)=O)c(Nc2ccc(S(=O)(=O)Nc3ccncc3)cc2)n1 (single isomer, unassigned) [Example 17-81] shows IC50 below 2 nM.
Result: class 1

Query: Confirm or reject: IC50 of CN(C)[C@@H]1CC[C@H](n2cc(C(N)=O)c(Nc3ccc(OC(F)F)cc3)n2)[C@@H](C#N)C1 (single isomer, unassigned) [Example 28-95] lies strictly below 2 nM
Result: class 1

Query: For CNC(=O)O[C@@H]1CCC(n2cc(C(N)=O)c(Nc3ccc(F)cc3)n2)[C@@H](C#N)C1 (mixture of isomers) [Example 34-6] , is the recorded IC50 below the cut-off of 2 nM?
Result: class 1

Query: Regarding N#C[C@H]1C[C@@H](NC2COC2)CC[C@@H]1n1cc(C(N)=O)c(Nc2ccc(CC(F)(F)F)cc2)n1 (single isomer, unassigned) [Example 28-79] , kindly confirm whether its IC50 is beneath 2 nM.
Result: class 1

Query: Determine whether this molecule shows IC50 lower than 2 nM (ties excluded): CC(C)N[C@@H]1CC[C@H](n2cc(C(N)=O)c(Nc3ccc(S(=O)(=O)C(F)(F)F)cc3)n2)[C@@H](C#N)C1 (single isomer, unassigned) [Example 28-175]
Result: class 1

Query: Strictly below 2 nM in IC50? N#C[C@H]1CC(NCC(F)F)CC[C@@H]1n1cc(C(N)=O)c(Nc2ccc(S(=O)(=O)C(F)F)cc2)n1 (single isomer, unassigned) [Example 28-122]
Result: class 1

Query: Determine whether this molecule shows IC50 lower than 2 nM (ties excluded): CC(=O)c1ccc(Nc2nn([C@H]3CCCC[C@@H]3C#N)cc2C(N)=O)cc1 (single isomer, unassigned) [Example 17-27]
Result: class 1

Query: Would you kindly verify if IC50 of N#C[C@H]1C[C@H](NC2CCC2)CC[C@@H]1n1cc(C(N)=O)c(Nc2ccc(C(F)(F)F)cc2)n1 (single isomer, unassigned) [Example 30-14] is strictly less than 2 nM?
Result: class 0

----------
tested.system: JAK2 (recombinant purified GST-tagged catalytic domain) (Homo sapiens (Human), UniProt O60674)
Sequence (O60674 849-1124): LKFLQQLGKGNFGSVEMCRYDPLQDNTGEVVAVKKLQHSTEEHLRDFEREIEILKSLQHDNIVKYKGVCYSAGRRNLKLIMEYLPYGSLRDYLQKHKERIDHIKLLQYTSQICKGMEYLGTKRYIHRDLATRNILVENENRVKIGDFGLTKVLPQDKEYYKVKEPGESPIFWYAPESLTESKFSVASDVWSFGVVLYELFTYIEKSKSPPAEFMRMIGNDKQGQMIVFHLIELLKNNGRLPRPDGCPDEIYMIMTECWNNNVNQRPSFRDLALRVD
protocol: biochemical
quantity.kind: pIC50
pIC50 field: float, defined as -log10 of concentration (mol/L).

Query: Complete the entry with pIC50 for N#C[C@H]1CCCC[C@@H]1n1cc(C(N)=O)c(Nc2ccc(S(=O)(=O)N3CCOCC3)cc2)n1 (single isomer, unassigned)
Result: 9.00

Query: In one line, give reported pIC50 of the entry CC1(C)CN([C@H]2CC[C@H](n3cc(C(N)=O)c(Nc4ccc(Cl)cc4)n3)[C@@H](C#N)C2)C1 (single isomer, unassigned) .
Result: 7.68

Query: Report pIC50, nothing else, for this compound: CC(C)(c1ccc(Nc2nn([C@H]3CC[C@H](O)C[C@@H]3C#N)cc2C(N)=O)cc1)C(O)C(F)(F)F (single isomer, unassigned) [Example 33-15]
Result: 8.70

Query: Give the measured pIC50 for CC1CN([C@H]2CC[C@H](n3cc(C(N)=O)c(Nc4ccc(Cl)cc4)n3)[C@@H](C#N)C2)C1 (single isomer, unassigned)
Result: 7.07

Query: Note pIC50 for the compound shown: N#C[C@H]1C[C@@H](C(=O)NC(C2CC2)C2CC2)CC[C@@H]1n1cc(C(N)=O)c(Nc2ccc(Cl)cc2)n1 (single isomer, unassigned)
Result: 6.30

Query: Write down pIC50 measured for item N#C[C@H]1CC[C@H](O)CC1n1cc(C(N)=O)c(Nc2ccccc2)n1 (mixture of isomers)
Result: 7.10

----------
So I've got a bunch of compounds here, and I need their IC50 values.
tested.system: JAK2 (recombinant purified GST-tagged catalytic domain) (Homo sapiens (Human), UniProt O60674)
protocol: biochemical
Please respond with the number in µM and leave the unit unwritten.

Query: Tell me its IC50 given Cn1cc(-c2ccc(Nc3nn(C4CCCC[C@@H]4C#N)cc3C(N)=O)cn2)cn1 (mixture of isomers) as the entry.
Result: 0.015

Query: Give IC50 for N#C[C@@H]1CCCC[C@H]1n1cc(C(N)=O)c(Nc2ccc(S(=O)(=O)NCC3CC3)cc2)n1 (single isomer, unassigned)
Result: 0.001

Query: Give IC50 for the following compound: C[C@H](N[C@@H]1CC[C@H](n2cc(C(N)=O)c(Nc3ccc(OC(F)(F)F)cc3)n2)[C@@H](C#N)C1)C1CC1 (single isomer, unassigned)
Result: 0.2

Query: Supply recorded IC50 for COCCNS(=O)(=O)c1ccc(Nc2nn([C@H]3CCCC[C@@H]3C#N)cc2C(N)=O)cc1 (single isomer, unassigned) here.
Result: 0.001

Query: Report IC50 for N#C[C@H]1C[C@@H](N[C@@H](C2CC2)C(F)(F)F)CC[C@@H]1n1cc(C(N)=O)c(Nc2ccc(C(F)(F)F)cc2)n1 (single isomer, unassigned)
Result: 0.152

Query: For the compound COC(=O)c1ncc(Nc2nn([C@H]3CCCC[C@@H]3C#N)cc2C(N)=O)cc1C (single isomer, unassigned) , give its reported IC50.
Result: 0.017

----------
tested.system: JAK2 (recombinant purified GST-tagged catalytic domain) (Homo sapiens (Human));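 further: biochemical JAK kinase assay with HTRF detection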
pIC50: −log10 of the molar value.
Assign satisfied to entries whose pIC50 meets or exceeds 7; assign not satisfied to the rest.

Query: Assess whether reported pIC50 for N#C[C@H]1CC(F)CC[C@@H]1n1cc(C(N)=O)c(Nc2ccccc2)n1 (mixture of isomers) sits at 7 or higher.
Result: satisfied

Query: Item N#C[C@@H]1CCC2(C[C@H]1n1cc(C(N)=O)c(Nc3ccccc3)n1)OCCO2 (single isomer, unassigned) [Example 45-1] with pIC50 of 7 or above?
Result: not satisfied

Query: Say whether N#C[C@H]1CC[C@H](NCc2ccccc2)C[C@@H]1n1cc(C(N)=O)c(Nc2ccc(F)cc2)n1 (mixture of isomers) shows pIC50 of 7 or more.
Result: satisfied

Query: Hello, I need to know if CC(C)(C)OC(=O)NCC1CC[C@H](C#N)[C@@H](n2cc(C(N)=O)c(Nc3ccc(F)cc3)n2)C1 (single isomer, unassigned) [Example 11-10] has measured pIC50 not below 7. Thanks!
Result: not satisfied

Query: Could you verify whether the entry N#C[C@@H]1CCC[C@@H]1n1cc(C(N)=O)c(Nc2ccccc2)n1 (mixture of isomers) shows pIC50 of no less than 7?
Result: not satisfied

Query: Can CN[C@H]1CC[C@H](C#N)[C@@H](n2cc(C(N)=O)c(Nc3ccc(F)cc3)n2)C1 (mixture of isomers) be said to have pIC50 at or above 7?
Result: not satisfied
